Provenance of the data: patent US11008314B2

IC50: recorded values
- test_system: ITK (Homo sapiens (Human), UniProt Q08881)
- Sequence (Q08881 whole entry): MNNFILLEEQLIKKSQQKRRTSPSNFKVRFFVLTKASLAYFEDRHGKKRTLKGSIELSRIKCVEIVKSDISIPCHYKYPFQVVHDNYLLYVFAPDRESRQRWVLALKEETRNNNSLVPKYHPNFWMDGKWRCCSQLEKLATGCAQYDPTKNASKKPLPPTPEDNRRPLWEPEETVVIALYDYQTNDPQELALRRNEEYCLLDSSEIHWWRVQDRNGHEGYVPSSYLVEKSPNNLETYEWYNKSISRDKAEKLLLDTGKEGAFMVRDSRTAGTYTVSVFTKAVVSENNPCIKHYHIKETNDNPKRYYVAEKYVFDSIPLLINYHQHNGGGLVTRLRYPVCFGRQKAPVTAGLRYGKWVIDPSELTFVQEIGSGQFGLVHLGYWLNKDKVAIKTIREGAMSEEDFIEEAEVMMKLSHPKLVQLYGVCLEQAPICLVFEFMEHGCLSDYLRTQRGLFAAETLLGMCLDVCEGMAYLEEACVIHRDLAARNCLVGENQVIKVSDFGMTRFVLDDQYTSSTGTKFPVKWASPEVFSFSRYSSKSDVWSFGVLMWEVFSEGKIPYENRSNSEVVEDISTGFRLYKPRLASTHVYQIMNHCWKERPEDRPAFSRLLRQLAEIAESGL
- procedure_details: IC50 against ITK
- Type: biochemical

Sample answers from the record:
compound	result
C=CC(=O)N1CCN(C(=O)c2cc(Sc3cnc(NC(=O)c4ccsc4)s3)c(C)cc2C)CC1	< 10 nM
C=CC(=O)N1CCN(C(=O)c2cccc(Cc3cnc(NC(=O)C4CC4)s3)c2)CC1	10 to 100 nM
C=CC(=O)N1CCN(C(=O)c2cc(Sc3cnc(Nc4ccccn4)s3)c(C)cc2OC)CC1	< 10 nM
C=CC(=O)N1CCCN(C(=O)c2cc(Sc3cnc(NC(=O)c4cnsc4)s3)c(C)cc2C)C[C@H]1CC	< 10 nM

Exercise: For the compound "C=CC(=O)N1CCCN(C(=O)c2cc(Cc3cnc(NC(=O)C4CC4)s3)c(C)cc2OC)C[C@H]1C" , give its reported IC50.
Key: 10 to 100 nM

Exercise: Given the compound "C=CC(=O)N1CCN(C(=O)c2cc(Sc3cnc(NC(=O)C4CC4)s3)c(C)cc2OC)CC1(C)C" , write its reported IC50.
Key: 10 to 100 nM

Exercise: Report IC50 for "C=CC(=O)N1CCN(C(=O)c2cc(Sc3cnc(Nc4ccccn4)s3)c(C)cc2OC)[C@@H](C)C1"
Key: < 10 nM

Exercise: Consider the compound "C=CC(=O)N1CCCN(C(=O)c2cc(Sc3cnc(NC(C)=O)s3)c(C)cc2OC)CC1" . State its measured IC50.
Key: 10 to 100 nM

* * *

- test_system: TXK (Homo sapiens (Human))
- Sequence (P42681 whole entry, species assumed): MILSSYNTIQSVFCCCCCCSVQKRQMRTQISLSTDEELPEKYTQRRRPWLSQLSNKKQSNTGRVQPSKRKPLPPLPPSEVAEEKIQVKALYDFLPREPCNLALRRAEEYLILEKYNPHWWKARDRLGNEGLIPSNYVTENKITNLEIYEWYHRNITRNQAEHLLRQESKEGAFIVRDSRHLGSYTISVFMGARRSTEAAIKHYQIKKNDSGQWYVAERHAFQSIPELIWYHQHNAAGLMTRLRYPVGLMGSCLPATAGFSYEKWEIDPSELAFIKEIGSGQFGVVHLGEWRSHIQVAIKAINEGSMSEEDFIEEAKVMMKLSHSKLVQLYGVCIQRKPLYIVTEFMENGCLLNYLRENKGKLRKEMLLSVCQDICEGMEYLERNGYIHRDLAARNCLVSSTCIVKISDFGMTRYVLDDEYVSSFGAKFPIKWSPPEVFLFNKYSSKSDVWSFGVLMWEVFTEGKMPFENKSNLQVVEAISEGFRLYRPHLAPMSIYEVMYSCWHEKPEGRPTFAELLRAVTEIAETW
- procedure_details: IC50 against TXK
- Type: biochemical
- applied_conditions: ratio of TXK IC50 to ITK IC50
quantity_kind: TXK/ITK
Reply with the value as a number alone.

Examples with answers:
> print(dat)
                               entry.smiles  quantitative.readout
1  C=CC(=O)N1CCN(C(=O)c2cc(Sc3cnc(Nc4ccccn4)s3)c(C)cc2OC)CC1                8.2157
2  C=CC(=O)N1CCN(C(=O)c2cc(Sc3cnc(NC(=O)c4cccc(CN(C)C)c4)s3)c(C)cc2OC)CC1                79.163
3  C=CC(=O)N1CC2(CCN(C(=O)c3cc(Sc4cnc(NC(=O)C5CC5)s4)c(C)cc3OC)C2)C1                4.1551

Exercise: Hello, please tell me recorded TXK/ITK for this one: "C=CC(=O)N1CCN(C(=O)c2cc(Sc3cnc(NC(=O)C4CC4)s3)c(C)cc2Cl)C[C@H]1CC"
Key: 4.279

Exercise: Supply recorded TXK/ITK for "C=CC(=O)N1CCCN(C(=O)c2cc(Sc3cnc(NC(=O)C(C)C)s3)c(C)cc2OC)CC1" here.
Key: 72.34

Exercise: Report TXK/ITK for "C=CC(=O)N1C[C@@H]2C[C@H]1CN2C(=O)c1cc(Sc2cnc(NC(=O)C3CC3)s2)c(C)cc1OC"
Key: 1.4139

Exercise: Answer with the recorded TXK/ITK for the compound listed here: "C=CC(=O)N1CCCN(C(=O)c2cc(Sc3cnc(NC(=O)C4CC4)s3)cc(C)c2C)C[C@H]1C"
Key: 61.086

* * *

- test_system: BTK (Homo sapiens (Human), UniProt Q06187)
- Sequence (Q06187 whole entry, species assumed): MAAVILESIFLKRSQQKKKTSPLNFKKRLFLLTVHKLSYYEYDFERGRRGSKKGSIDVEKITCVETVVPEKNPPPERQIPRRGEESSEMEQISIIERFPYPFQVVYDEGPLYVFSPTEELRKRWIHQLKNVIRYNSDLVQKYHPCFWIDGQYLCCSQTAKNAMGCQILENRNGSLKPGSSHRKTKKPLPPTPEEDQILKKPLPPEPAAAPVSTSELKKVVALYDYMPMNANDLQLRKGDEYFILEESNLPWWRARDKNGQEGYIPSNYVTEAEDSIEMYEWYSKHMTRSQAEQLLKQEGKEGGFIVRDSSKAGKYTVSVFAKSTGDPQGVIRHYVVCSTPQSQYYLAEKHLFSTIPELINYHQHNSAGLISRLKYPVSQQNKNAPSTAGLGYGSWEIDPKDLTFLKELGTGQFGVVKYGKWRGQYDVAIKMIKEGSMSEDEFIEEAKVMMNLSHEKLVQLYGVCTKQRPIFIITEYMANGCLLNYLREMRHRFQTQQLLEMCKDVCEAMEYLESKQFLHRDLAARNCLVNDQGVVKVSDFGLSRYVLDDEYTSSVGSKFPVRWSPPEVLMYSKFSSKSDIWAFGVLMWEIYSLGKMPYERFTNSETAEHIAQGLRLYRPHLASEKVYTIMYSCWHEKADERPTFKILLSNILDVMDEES
- procedure_details: IC50 against BTK
- Type: biochemical
IC50: recorded values

In the examples that follow, each entry is paired with its recorded IC50.
> print(dat)
                               entry.smiles  quantity.kind          result
1  C=CC(=O)N1CCN(C(=O)c2cc(Sc3cnc(NC(=O)c4ccc(N5CCN(C(=O)OC(C)(C)C)CC5)cc4)s3)c(C)cc2OC)CC1           IC50  100 to 1000 nM
2  C=CC(=O)N1CCCN(C(=O)c2cc(Sc3cnc(NC(=O)C4CC4)s3)c(C)cc2OC)CCC1           IC50  100 to 1000 nM
3  C=CC(=O)N1CCCN(C(=O)c2cc(Cc3cnc(NC(=O)C4CC4)s3)c(C)cc2C)C[C@H]1C           IC50  100 to 1000 nM

Shift focus to the following entry.
Exercise: Hello, please tell me recorded IC50 for this one: "C=CC(=O)N1CCCN(C(=O)c2cc(Sc3cnc(Nc4ccccn4)s3)c(C)cc2OC)C[C@H]1C(C)C"
Key: 10 to 100 nM
